Assay: Cytotoxicity against human NHDF cells assessed as cell survival at 100 uM
Type: cell-based
Conditions: read-out: Activity
reported_property: viability at 100 µM (%)
Entry rule: numbers only, all in %.

Identify the reported viability at 100 µM for the following entry. COc1ccc2c(c1)C(=O)C(c1c(O)[nH]c3ccccc13)=N2 80

---

Test system: IMR-32
Test: Cytotoxicity against human IMR32 cells assessed as cell viability after 48 hrs by MTT assay
Format: functional, cell-based
The source made the active and inactive calls. The rule behind the calls is not given here.
Respond using exactly one of the listed classes: active, inactive

>  <entry_smiles>
O=C1C(c2c(O)[nH]c3ccc(Br)cc23)=Nc2ccccc21

>  <group>
inactive

$$$$
>  <entry_smiles>
O=Nc1c(-c2c(O)[nH]c3ccccc23)[nH]c2ccccc12

>  <group>
active

$$$$
>  <entry_smiles>
O=C1C(c2c(O)[nH]c3ccccc23)=Nc2cc(Br)ccc21

>  <group>
inactive

$$$$

GET /call?item= COc1ccc2c(c1)N/C(=C1\C(=O)Nc3ccccc31)C2=O returns the recorded outcome of this test. active

GET /call?item= COc1ccc2c(c1)NC(=O)/C2=C1\Nc2ccccc2\C1=N/O returns the recorded outcome of this test. active

GET /call?item= COc1ccc2c(c1)C(=O)C(c1c(O)[nH]c3ccccc13)=N2 returns the recorded outcome of this test. active

GET /call?item= COc1cccc2c1NC(=O)/C2=C1\Nc2ccccc2\C1=N/O returns the recorded outcome of this test. active

GET /call?item= COc1ccc2c(c1)C(=N\O)/C(=C1/C(=O)Nc3ccccc31)N2 returns the recorded outcome of this test. inactive

GET /call?item= O=C1C(c2c(O)[nH]c3cc(Br)ccc23)=Nc2ccccc21 returns the recorded outcome of this test. inactive

GET /call?item= O=C1C(c2c(O)[nH]c3ccccc23)=Nc2ccc(Br)cc21 returns the recorded outcome of this test. inactive

GET /call?item= COc1ccc2c(c1)/C(=C1/Nc3ccccc3/C1=N\O)C(=O)N2 returns the recorded outcome of this test. active

GET /call?item= O=C1Nc2cc(Br)ccc2/C1=C1/Nc2ccccc2/C1=N\O returns the recorded outcome of this test. active

GET /call?item= COc1ccc2[nH]c(O)c(C3=Nc4ccccc4C3=O)c2c1 returns the recorded outcome of this test. active

GET /call?item= O=C1C(c2c(O)[nH]c3c(Br)cccc23)=Nc2ccccc21 returns the recorded outcome of this test. inactive

---

Test system: NB39
Experiment: Cytotoxicity against human NB39 cells assessed as cell viability after 48 hrs by MTT assay
Assay type: functional, cell-based
The source made the active and inactive calls. The calls are words filed in the database; no cut-off is given here.
Respond using exactly one of the listed classes: True (active), False (inactive)

// known answers, use as guide
>  <entry_smiles>
COc1ccc2c(c1)C(=O)C(c1c(O)[nH]c3ccccc13)=N2

>  <target_under_test>
NB39

>  <group>
True

$$$$
>  <entry_smiles>
COc1ccc2c(c1)NC(=O)/C2=C1\Nc2ccccc2\C1=N/O

>  <target_under_test>
NB39

>  <group>
True

$$$$
>  <entry_smiles>
COc1ccc2c(c1)N/C(=C1\C(=O)Nc3ccccc31)C2=O

>  <target_under_test>
NB39

>  <group>
True

$$$$

# ---- query compound ----
GET /call?item= COc1ccc2[nH]c(O)c(C3=Nc4ccccc4C3=O)c2c1 returns the recorded outcome of this test. True

---

Experiment: Cytotoxicity against human HUVEC cells assessed as cell survival at 100 uM
Assay type: cell-based
Details: read-out: Activity
reported_property: viability at 100 µM
Record the result as a number with its unit.

Identify the reported viability at 100 µM for the following entry. COc1ccc2c(c1)C(=O)C(c1c(O)[nH]c3ccccc13)=N2 40%

This collection of values is drawn from ChEMBL document CHEMBL1828596.
